Form field: koff (one value per entry).
- target entity: T1, cynoNectin4-mFc (cyno, UniProt A0A2K5WES1 32-349)
- T1 construct: Immobilized on the SPR chip; also called cyanoNectin4; not shown: mFc (mouse Fc)
- T1 sequence: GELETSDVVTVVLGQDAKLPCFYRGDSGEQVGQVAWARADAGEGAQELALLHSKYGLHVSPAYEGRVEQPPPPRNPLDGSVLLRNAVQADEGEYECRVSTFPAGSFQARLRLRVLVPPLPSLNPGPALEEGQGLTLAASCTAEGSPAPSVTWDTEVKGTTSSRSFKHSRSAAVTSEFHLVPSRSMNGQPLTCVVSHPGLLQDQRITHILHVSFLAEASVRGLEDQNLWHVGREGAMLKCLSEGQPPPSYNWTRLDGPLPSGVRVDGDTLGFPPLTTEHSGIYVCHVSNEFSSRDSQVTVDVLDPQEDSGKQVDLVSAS
- assay explanation: SPR, cynoNectin4-mFc immobilized, pH 6.5
Respond numerically; units are s⁻¹ and should not be typed.

Use these answered entries as a reference point.
binder: BAP-143-00-06 (antibody, V domains shown, Used as a conjugate with a linker payload (CAB ADC)) VH: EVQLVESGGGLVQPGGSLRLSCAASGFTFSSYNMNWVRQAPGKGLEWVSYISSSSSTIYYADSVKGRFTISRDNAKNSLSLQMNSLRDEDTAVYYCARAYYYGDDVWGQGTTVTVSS VL: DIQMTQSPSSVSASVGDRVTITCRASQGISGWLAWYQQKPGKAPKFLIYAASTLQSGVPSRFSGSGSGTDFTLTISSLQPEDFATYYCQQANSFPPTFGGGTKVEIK
koff, s⁻¹: 0.000769
--
binder: BAP-143-00-03 (antibody, V domains shown, Used as a conjugate with a linker payload (CAB ADC)) VH: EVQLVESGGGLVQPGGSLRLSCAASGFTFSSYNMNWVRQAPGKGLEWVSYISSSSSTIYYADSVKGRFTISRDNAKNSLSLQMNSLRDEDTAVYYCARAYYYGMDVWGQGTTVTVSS VL: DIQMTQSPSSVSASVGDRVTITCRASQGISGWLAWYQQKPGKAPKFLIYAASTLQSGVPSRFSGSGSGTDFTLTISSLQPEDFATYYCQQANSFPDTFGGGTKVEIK
koff, s⁻¹: 0.00124
--
binder: BAP-143-00-02 (antibody, V domains shown, Used as a conjugate with a linker payload (CAB ADC)) VH: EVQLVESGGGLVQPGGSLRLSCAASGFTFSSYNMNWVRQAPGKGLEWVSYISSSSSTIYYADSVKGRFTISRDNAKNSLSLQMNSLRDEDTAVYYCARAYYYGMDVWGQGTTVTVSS VL: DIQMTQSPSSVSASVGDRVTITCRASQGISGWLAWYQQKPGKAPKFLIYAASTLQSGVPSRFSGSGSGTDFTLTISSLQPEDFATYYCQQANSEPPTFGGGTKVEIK
koff, s⁻¹: 0.00179

Here is another binder to look at.
Identify the reported koff for the following entry. BAP-143-00-01 (antibody, V domains shown, Used as a conjugate with a linker payload (CAB ADC)) VH: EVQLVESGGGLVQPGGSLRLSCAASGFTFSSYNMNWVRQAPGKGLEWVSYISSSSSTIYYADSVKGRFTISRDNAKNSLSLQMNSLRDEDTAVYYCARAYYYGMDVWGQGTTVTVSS VL: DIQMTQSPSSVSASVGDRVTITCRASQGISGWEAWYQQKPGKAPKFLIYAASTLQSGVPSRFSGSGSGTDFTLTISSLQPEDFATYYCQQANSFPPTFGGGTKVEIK
0.00134
